Values from patent US9079897B2

- targetDesc: human ALK5 (kinase domain, ALK5 T204D) (Homo sapiens, UniProt P36897, T204D)
- Construct: The kinase domain of human ALK5 (amino acids 200-503); made in house; host or cells: insect cells (baculovirus expression)
- Sequence (P36897 200-503 T204D): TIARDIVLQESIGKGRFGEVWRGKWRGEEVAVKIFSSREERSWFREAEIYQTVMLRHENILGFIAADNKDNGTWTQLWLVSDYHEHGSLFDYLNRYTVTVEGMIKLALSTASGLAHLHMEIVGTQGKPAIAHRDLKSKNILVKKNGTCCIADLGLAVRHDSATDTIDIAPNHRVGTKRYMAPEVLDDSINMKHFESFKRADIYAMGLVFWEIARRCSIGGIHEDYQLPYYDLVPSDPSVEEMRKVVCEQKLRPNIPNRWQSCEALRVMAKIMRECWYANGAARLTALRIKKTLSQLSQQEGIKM
- protocolSummary: ALK5 kinase activity, [33P] phosphate incorporation into casein
- Format: biochemical
- measurementParameters: casein substrate
Reported pIC50 values follow for various compounds
pIC50 is defined as minus the log10 of a concentration measured in mol/L.

// solved cases for pIC50 follow
{"compound": "O[C@H]1CCC[C@@H](Nc2ccc3ncn(-c4ccnc(-n5cccn5)c4)c3n2)C1 (racemic)", "targetDesc": "human ALK5 (kinase domain, ALK5 T204D) (Homo sapiens, UniProt P36897, T204D)", "measurementName": "pIC50", "valueMeasured": 7.25}
{"compound": "O[C@H]1CCC[C@H](Nc2ccc3ncn(-c4ccnc(-c5ccc(F)cc5)c4)c3n2)C1 (racemic)", "targetDesc": "human ALK5 (kinase domain, ALK5 T204D) (Homo sapiens, UniProt P36897, T204D)", "measurementName": "pIC50", "valueMeasured": 6.50}
{"compound": "Cc1ccn(-c2cc(-n3cnc4ccc(NC5CCCC(O)C5)nc43)ccn2)n1 (centres unmarked)", "targetDesc": "human ALK5 (kinase domain, ALK5 T204D) (Homo sapiens, UniProt P36897, T204D)", "measurementName": "pIC50", "valueMeasured": 7.42}
{"compound": "O[C@H]1CCC[C@@H](Nc2ccc3ncn(-c4ccnc(-c5ccoc5)c4)c3n2)C1 (racemic)", "targetDesc": "human ALK5 (kinase domain, ALK5 T204D) (Homo sapiens, UniProt P36897, T204D)", "measurementName": "pIC50", "valueMeasured": 8.22}

Shifting focus to the compound that follows.
Note to self: pIC50 recorded for OC1CCC(Nc2ccc3ncn(-c4ccnc(-c5ccoc5)c4)c3n2)CC1 (centres unmarked) was 7.89
